system: prostaglandin biosynthesis (homogenate of guinea pig's lung); assay: Inhibitory action on prostaglandin biosynthesis (TBA method); conditions: read-out: ID50
pIC50: −log10 of the molar value.
observation-type: pIC50

[
  {
    "molecule": "CCCCC1C(=O)N(c2ccccc2)N(c2ccccc2)C1=O",
    "observation-type": "pIC50",
    "value-measured": 4.17
  }
]

====

assay: in vivo; conditions: rat, po
log10(LD50) values by entry
observation-type: log10(LD50) (log10 of the value in mg/kg)

[
  {
    "compound": "COc1ccc2c(c1)c(CC(=O)O)c(C)n2C(=O)c1ccc(Cl)cc1",
    "value-measured": 1.21
  },
  {
    "compound": "Cc1ccsc1-c1ccc(C(C)C(=O)O)cc1 (racemic) [Racemic compound]",
    "value-measured": 2.39
  },
  {
    "compound": "CC(C(=O)O)c1ccc(-c2cccs2)cc1 (stereo not drawn)",
    "value-measured": 2.06
  },
  {
    "compound": "Cc1ccsc1-c1ccc(C(C)C(=O)O)cc1 (single isomer, unassigned; isomer d) [d-Isomer]",
    "value-measured": 2.36
  },
  {
    "compound": "CC(C(=O)O)c1ccc(-c2cccs2)c(Cl)c1 (stereo not drawn)",
    "value-measured": 2.43
  }
]
